Measured values drawn from patent US20220340598A1 for this set.

target under test: NIH/3T3 cells overexpressing FGFR3 V555M-TACC3 fusion protein (Homo sapiens, UniProt P22607, V555M, cells depend on it)
Construct: fused on or other part: Q9Y6A5 (Transforming acidic coiled-coil-containing protein 3)
Sequence (P22607 whole entry V555M, the tested form may be a part): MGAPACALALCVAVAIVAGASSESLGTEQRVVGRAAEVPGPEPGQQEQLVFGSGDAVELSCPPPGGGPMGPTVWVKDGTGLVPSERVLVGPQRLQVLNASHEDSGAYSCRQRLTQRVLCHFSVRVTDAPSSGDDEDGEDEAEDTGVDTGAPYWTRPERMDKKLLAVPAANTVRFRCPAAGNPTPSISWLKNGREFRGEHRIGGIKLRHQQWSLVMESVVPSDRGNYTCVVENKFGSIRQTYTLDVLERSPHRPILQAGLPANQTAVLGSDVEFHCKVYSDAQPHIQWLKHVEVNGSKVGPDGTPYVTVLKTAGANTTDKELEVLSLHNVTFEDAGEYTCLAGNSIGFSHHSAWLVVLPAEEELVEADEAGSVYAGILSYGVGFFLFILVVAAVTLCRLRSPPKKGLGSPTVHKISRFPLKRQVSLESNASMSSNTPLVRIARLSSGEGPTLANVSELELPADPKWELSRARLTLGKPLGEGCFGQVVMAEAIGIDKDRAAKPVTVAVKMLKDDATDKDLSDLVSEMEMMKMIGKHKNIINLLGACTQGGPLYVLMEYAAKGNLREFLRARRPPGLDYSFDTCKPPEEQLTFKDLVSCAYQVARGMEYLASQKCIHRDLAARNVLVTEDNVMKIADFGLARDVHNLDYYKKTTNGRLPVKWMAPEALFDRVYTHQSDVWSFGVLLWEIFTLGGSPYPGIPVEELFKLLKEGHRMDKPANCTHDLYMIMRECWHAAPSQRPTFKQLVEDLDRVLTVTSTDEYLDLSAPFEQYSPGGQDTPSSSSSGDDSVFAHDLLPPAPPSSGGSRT
test description: NIH/3T3 FGFR3 V555M-TACC3 cell proliferation assay
Assay type: cell-based
protocol conditions: 72-hr incubation, CellTiter Glo; read-out: NIH/3T3 FGFR3 V555M-TACC3 CTG (IC50)
Task for the reader: assign each of the following compounds its reported GI50.

For CCn1cc2[nH]c(=O)c(-c3nc4cc(OC)c(OC)cc4[nH]3)c(NC(C)c3cocn3)c2n1 (single isomer, unassigned) , what is its reported GI50?
50.4 nM

# repeat for CCOc1cc2[nH]c(-c3c(N[C@@H](C)c4ncccn4)c4nn(CC)cc4[nH]c3=O)nc2cc1OC
23 nM

Try the compound CCC(Nc1c(-c2nc3ccc(OC)cc3[nH]2)c(=O)[nH]c2cn(C)nc12)c1ncccn1 (single isomer, unassigned)
23.9 nM

Now consider CC(C)C(Nc1c(-c2nc3ccc(C(=O)N(C)C)cc3[nH]2)c(=O)[nH]c2cn(C)nc12)c1ncccn1 (single isomer, unassigned) and answer again.
31.9 nM

One more compound: COc1cc2nc(-c3c(N[C@@H](C)c4ccccn4)c4nn(C)cc4[nH]c3=O)[nH]c2cc1OC
13.1 nM

Same question, COc1cc2nc(-c3c(NC(c4ncccn4)C(C)C)c4nn(C)cc4[nH]c3=O)[nH]c2cc1OC (single isomer, unassigned) this time
31.2 nM
